Please provide measured Cell viability, HUVEC, Data3 for the entries that follow.
- System: human umbilical vein endothelial cells (HUVEC); note: test concentration or dose not given here
Ends that are not written are not given here.
I only need the number, thanks.

Which Cell viability, HUVEC, Data3 is reported with human umbilical vein endothelial cells (HUVEC) for this entry: LQDVVE [TaPep24] ?
112.88

Do the same for TIDDELR [TaPep26] please
108.33

Do the same for DAELDK [TaPep34] please
102.34

Do the same for NNDDEES [TaPep50] please
106.09

Do the same for IAVPHEP [TaPep47] please
89.25

Do the same for YQAENKH [TaPep14] please
93.56

Do the same for FTEELE [TaPep32] please
93.32

Do the same for KNDESVD [TaPep48] please
110.16

Do the same for EEVPITD [TaPep46] please
100.19

Do the same for LQPDAGK [TaPep6] please
99.15

Do the same for VAEDLL [TaPep8] please
108.33

Do the same for AQDDLP [TaPep20] please
99.87

Do the same for DQEPVE [TaPep44] please
107.53

Do the same for EQPLQA [TaPep21] please
111.44

Do the same for EDGPHGD [TaPep45] please
101.70

Do the same for AKDEKEL [TaPep1] please
101.54

Do the same for EVGMQE [TaPep56] please
114.16

Do the same for FEGDQDA [TaPep18] please
100.75

Do the same for YDGTPLN [TaPep11] please
114.40

Do the same for SLEYLP [TaPep35] please
100.27

Do the same for EPKVLV [TaPep54] please
103.38

Do the same for DQKVLA [TaPep3] please
92.68

Do the same for EQGEQN [TaPep15] please
94.12

Do the same for PPLENT [TaPep39] please
108.09

Do the same for HIDELDE [TaPep22] please
108.17

Do the same for DFKEELPK [TaPep42] please
95.16

Do the same for AQSSLS [TaPep40] please
90.37

Do the same for KGYEAV [TaPep5] please
95.64

Do the same for SNDPVA [TaPep71] please
100.19

Do the same for YAGNAP [TaPep10] please
103.62

Do the same for LWGPVT [TaPep72] please
89.49

Do the same for LQPSLEH [TaPep59] please
110.48

Do the same for TQEVVN [TaPep25] please
98.03

Do the same for EFPEQN [TaPep17] please
101.22

Do the same for TAEQVA [TaPep33] please
92.84

Do the same for HGGDDLG [TaPep28] please
101.46

Do the same for APEELDA [TaPep36] please
115.59
